- subject_of_test: biotinylated HCV core peptide 151-171 (Peptide 3) (HCV-1)
- experiment_notes: EIA, captured mAb
measurement_type: Reactivity (OD492) (OD)
Provide the reading as a plain figure in OD.

| binder | Reactivity (OD492) / OD |
| --- | --- |
| HCV 208A-126 (antibody, V domains shown) VH: QLQQSGPVLVKPGASVMISCKTSGYTFTENAMHWVKQSHGKSLEWIGGVNPNNGDTIFNQKFKGKATLTVDKSSNTAFTELRSLPSEESTVYYCVRRGLDFFDYWGQGTSVTVSS VL: DIVLTQSPASLAVSLGQRATISCRASQSVSTSRYSYMHWYQQKPGQPPKLLIKYASNLESGVPARFSGSGSGTDFTLNIHPVAEEDTAAYYCQHSWEFPFTFGSGTKLEIKR | 0.1 |
| HCV 208A-877 (antibody, V domains shown) VH: QLQQSGPELVKPGASVKISCKTSGYTFTENAMHWVKQSRGKSLEWIGGVNPNNGDTVYTQKFKGKATLTVAKSSSTAYMELRTMTCEESTVYYCASREPDFFDYWGQGSSVTVSS VL: QIVLTQSPAIMSVSPGEKVSMTCSASSSVTYMHWYQQKSGTSPKRWIYDTSELASGVPARFSGSGSGTTYSLTISSMEAEDAATYYCQQWSNKPLTFGAGTKLELKR | 0.05 |

Now turn to the next binder.
Lookup: Please look up its Reactivity (OD492): HCV 208B-672 (antibody, V domains shown) VH: EVKLVESGGSLVQPGGSLKLSCAASGFNFNTYAMSWVRQTPEKRLEWVAYISNGGGNTYYVDTVKGRFTISRDNAKNTLYLRMSSLKSEDTAMYYCARHGLYWGYSMDYWGQGTSVTVSS VL: DIQMTQSPSSLSASLGERVSLTCRASQDIGGSINWLQQEPDGTIKRLIYATSSLDSGVPKRFSGSRSGSDYSLTISSLESEDFVDYYCLQYASSPPTFGGGTKLEIKR
Found: 0.1
